Source listed as patent US7812022B2.

- System: BT474 and HN5 tumor cell lines
- Protocol summary: Methylene blue growth inhibition assay (cellular Method A)
- Type: cell-based, Human
- Test settings: Homo sapiens, BT-474, 72 h, 3 days, read-out: Activity (Method): growth inhibition IC50 class

{"Mol": "O=C(Nc1cccc(-c2nn3ccccc3c2-c2ccnc(Nc3cccc(-c4cnco4)c3)n2)c1)c1cc(F)ccc1F", "IC50": "< 100 nM"}
{"Mol": "COc1cccc(C(=O)Nc2cccc(-c3nn4ccccc4c3-c3ccnc(Nc4ccc5c(c4)OCCO5)n3)c2)c1", "IC50": "100 to 1000 nM"}
{"Mol": "COc1ccc(Nc2nccc(-c3c(-c4cccc(NC(=O)c5c(F)cccc5F)c4)nn4ccccc34)n2)cc1N1CCN(C)CC1", "IC50": "< 100 nM"}
{"Mol": "Cc1ccsc1C(=O)Nc1cccc(-c2nn3ccccc3c2-c2ccnc(Nc3ccccc3)n2)c1", "IC50": "< 100 nM"}
{"Mol": "O=C(Nc1cccc(-c2nn3ccccc3c2-c2ccnc(Nc3ccc(N4CCCCC4)c(F)c3)n2)c1)c1c(F)cccc1F", "IC50": "100 to 1000 nM"}
{"Mol": "O=C(Nc1cccc(-c2nn3ccccc3c2-c2ccnc(Nc3cccc(F)c3)n2)c1)c1ccccc1", "IC50": "100 to 1000 nM"}
{"Mol": "CS(=O)(=O)Cc1ccc(Nc2nccc(-c3c(-c4cccc(NC(=O)c5cc(F)ccc5F)c4)nn4ccccc34)n2)cc1", "IC50": "100 to 1000 nM"}
{"Mol": "O=C(Nc1cccc(-c2nn3ccccc3c2-c2ccnc(Nc3ccc(OCCN4CCOCC4)c(Cl)c3)n2)c1)c1c(F)cccc1F", "IC50": "< 100 nM"}
{"Mol": "O=C(Nc1cccc(-c2nn3ccccc3c2-c2ccnc(Nc3cccc(F)c3)n2)c1)c1sccc1Br", "IC50": "100 to 1000 nM"}
{"Mol": "CCS(=O)(=O)Cc1ccc(Nc2nccc(-c3c(-c4cccc(NC(=O)c5cc(F)ccc5F)c4)nn4ccccc34)n2)cc1", "IC50": "100 to 1000 nM"}
{"Mol": "O=C(Nc1cccc(-c2nn3ccccc3c2-c2ccnc(Nc3ccccc3)n2)c1)c1ccco1", "IC50": "100 to 1000 nM"}
{"Mol": "O=C(Nc1cccc(-c2nn3ccccc3c2-c2ccnc(Nc3cccc(F)c3)n2)c1)c1ccccn1", "IC50": "100 to 1000 nM"}
{"Mol": "O=C(Nc1cccc(-c2nn3ccccc3c2-c2ccnc(Nc3cccc(F)c3)n2)c1)c1ccccc1OC(F)(F)F", "IC50": "100 to 1000 nM"}
{"Mol": "O=C(Nc1cccc(-c2nn3ccccc3c2-c2ccnc(Nc3ccc4c(c3)OCCO4)n2)c1)c1c(F)cccc1F", "IC50": "< 100 nM"}
